Target: T1, biotinylated CD32bECDHis (human, UniProt P31994 43-223, limits assumed, biotinylated (sites not given))
T1 sequence (looked up): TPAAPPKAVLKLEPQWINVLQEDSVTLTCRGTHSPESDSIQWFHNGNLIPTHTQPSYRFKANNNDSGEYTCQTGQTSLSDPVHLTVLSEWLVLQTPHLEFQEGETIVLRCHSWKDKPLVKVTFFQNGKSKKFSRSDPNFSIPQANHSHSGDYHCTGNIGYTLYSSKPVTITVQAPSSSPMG
Assay: competition ELISA, competitor 038

binder	% residual binding, %
Antibody 026 (antibody, V domains shown, Human antibody; also called HuMab 026) VH: QVQLVQSGAEVKKPGASVKVSCKASGYTFTSYGLSWVRQAPGQGLEWMGWISAYNGNTNYAQKLQGRVTMTTDTSTSTAYMDLRSLRSDDTAVYYCARDSAAHGMDVWGQGTTVTVSS VL: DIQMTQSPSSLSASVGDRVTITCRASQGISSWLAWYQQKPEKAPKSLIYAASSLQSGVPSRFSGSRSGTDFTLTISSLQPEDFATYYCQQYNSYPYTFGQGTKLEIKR	127
Antibody 020 (antibody, V domains shown, also called HuMab 020) VH: QVQLVQSGGEVKKPGASVKVSCKTSGYTFTSYGISWVRQAPGQGLEWMGWISAYNGNTKYAQKLQGRLTMTTDTSTTTAYMELRSLRSDDTAVYYCARDSAAHGMDVWGQGTTVTVSS VL: DIQMTQSPSSLSASVGDRVTITCRASQGISSWLAWYQQKPEKAPKSLIYAASSLQSGVPSRFRGSGSGTDFTLTISSLQPEDFATYYCQQYNSYPYTFGQGTKLEIKR	120
Antibody 024 (antibody, V domains shown, also called HuMab 024) VH: QVQLVQSGAEVKKPGASVKVSCKASGYTFTSYGLSWVRQAPGQGLEWMGWISPYNGNTHYAQKLQGRVTMTTDTSTSTAYMDLRSLRSDDTAVYYCARDSAAHGMDVWGQGTTVTVSS VL: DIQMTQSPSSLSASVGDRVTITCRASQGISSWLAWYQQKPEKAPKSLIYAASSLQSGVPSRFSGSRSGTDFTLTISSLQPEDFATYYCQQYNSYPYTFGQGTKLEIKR	103
Antibody 053 (antibody, human IgG1, V domains shown, Human antibody; also called HuMab 053) VH: QVQLVESGGGVVQPGRSLRLSCAVSGFTFRSYGMHWVRQAPGKGLEWVAVIWYDGSIKYYADSVKGRFTISRDNSKNTLYLQMNSLRAEDTAVYFCAREGGRDAFDIWGQGTMVTVSS VL: AVQLTQSPSSLSASVGDRVTITCRASQGISSALAWYQQKPGKAPKLLIYDASSLESGVPSRFSGSGSGTDFTLTISSLQPEDFATYCCQQFNSYPHTFGGGTKVEIKR	168
Antibody 028 (antibody, V domains shown, List 1 gives no VL for antibody 028; The VL is therefore uncertain; also called HuMab 028) VH: QVQVVQSGAEVKKPGASVKVSCKTSGYTFTSYGISWVRQAPGQGLEWMGWISAYNGNTKYAQKLQGRLTMTTDTSTTTAYMELRSLRSDDTAVYYCARDSAAHGMDVWGQGTTVSVSS VL: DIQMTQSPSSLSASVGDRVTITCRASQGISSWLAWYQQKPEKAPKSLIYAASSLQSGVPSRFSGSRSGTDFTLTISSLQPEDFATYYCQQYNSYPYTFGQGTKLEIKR	121
